Biological target: UniProtKB P41595
Sequence (P41595 whole entry): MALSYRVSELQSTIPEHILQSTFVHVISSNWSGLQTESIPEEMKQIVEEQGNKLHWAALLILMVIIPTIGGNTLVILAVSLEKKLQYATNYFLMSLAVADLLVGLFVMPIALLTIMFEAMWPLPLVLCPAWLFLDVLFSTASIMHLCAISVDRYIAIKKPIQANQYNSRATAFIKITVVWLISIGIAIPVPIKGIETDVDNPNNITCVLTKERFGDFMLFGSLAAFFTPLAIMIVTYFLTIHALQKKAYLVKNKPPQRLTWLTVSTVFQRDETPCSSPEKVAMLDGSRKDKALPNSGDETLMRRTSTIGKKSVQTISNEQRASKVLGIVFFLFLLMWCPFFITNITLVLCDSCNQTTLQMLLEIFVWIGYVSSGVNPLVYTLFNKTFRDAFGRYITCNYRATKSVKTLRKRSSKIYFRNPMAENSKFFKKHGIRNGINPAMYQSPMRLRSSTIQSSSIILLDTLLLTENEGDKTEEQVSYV
Assay: Selectivity interaction (GPCR panel (PDSP screen)) EUB0000748a HTR2B

molecule	Ki
Cn1c(-c2csc(C3CCN(CC4=NC5N=CC=CC5N4)CC3)n2)nc2ccccc21 (stereo unspecified) [BAY-070]	1530 nM

###

Molecular target: Histone-lysine N-methyltransferase EZH1 (Homo sapiens)
Sequence (Q92800 whole entry): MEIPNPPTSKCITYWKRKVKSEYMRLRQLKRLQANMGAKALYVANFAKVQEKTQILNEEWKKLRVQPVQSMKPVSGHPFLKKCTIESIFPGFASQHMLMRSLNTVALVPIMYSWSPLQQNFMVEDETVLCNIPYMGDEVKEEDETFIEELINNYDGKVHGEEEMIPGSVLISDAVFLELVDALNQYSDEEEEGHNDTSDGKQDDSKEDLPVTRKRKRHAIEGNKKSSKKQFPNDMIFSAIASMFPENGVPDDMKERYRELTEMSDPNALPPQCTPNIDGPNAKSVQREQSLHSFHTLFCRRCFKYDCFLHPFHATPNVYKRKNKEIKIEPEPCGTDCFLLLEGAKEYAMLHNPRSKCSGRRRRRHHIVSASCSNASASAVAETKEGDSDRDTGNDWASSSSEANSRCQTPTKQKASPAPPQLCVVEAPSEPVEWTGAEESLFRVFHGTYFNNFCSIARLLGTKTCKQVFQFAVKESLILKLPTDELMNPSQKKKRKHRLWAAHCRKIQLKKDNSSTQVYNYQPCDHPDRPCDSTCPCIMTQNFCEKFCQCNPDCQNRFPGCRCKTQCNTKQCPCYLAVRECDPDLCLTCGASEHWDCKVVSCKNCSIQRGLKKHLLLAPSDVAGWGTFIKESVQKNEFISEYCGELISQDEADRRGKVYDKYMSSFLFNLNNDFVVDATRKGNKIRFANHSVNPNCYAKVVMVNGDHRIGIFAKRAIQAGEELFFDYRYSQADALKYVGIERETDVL
Test: Selectivity interaction (Methyltransferase panel) EUB0000196bCl EZH1
pEC50: −log10 of the molar value.
outcome.measure: pEC50

chem.smiles	outcome.measure	measured
O=C([C@@H](Cc1cccc(C(F)(F)F)c1)NS(=O)(=O)c1cc(F)c2c(c1)CCNC2)N1CCCC1	pEC50	< 5.00
